Target: wild type c-kit (Homo sapiens (Human))
Sequence (P10721 26-976): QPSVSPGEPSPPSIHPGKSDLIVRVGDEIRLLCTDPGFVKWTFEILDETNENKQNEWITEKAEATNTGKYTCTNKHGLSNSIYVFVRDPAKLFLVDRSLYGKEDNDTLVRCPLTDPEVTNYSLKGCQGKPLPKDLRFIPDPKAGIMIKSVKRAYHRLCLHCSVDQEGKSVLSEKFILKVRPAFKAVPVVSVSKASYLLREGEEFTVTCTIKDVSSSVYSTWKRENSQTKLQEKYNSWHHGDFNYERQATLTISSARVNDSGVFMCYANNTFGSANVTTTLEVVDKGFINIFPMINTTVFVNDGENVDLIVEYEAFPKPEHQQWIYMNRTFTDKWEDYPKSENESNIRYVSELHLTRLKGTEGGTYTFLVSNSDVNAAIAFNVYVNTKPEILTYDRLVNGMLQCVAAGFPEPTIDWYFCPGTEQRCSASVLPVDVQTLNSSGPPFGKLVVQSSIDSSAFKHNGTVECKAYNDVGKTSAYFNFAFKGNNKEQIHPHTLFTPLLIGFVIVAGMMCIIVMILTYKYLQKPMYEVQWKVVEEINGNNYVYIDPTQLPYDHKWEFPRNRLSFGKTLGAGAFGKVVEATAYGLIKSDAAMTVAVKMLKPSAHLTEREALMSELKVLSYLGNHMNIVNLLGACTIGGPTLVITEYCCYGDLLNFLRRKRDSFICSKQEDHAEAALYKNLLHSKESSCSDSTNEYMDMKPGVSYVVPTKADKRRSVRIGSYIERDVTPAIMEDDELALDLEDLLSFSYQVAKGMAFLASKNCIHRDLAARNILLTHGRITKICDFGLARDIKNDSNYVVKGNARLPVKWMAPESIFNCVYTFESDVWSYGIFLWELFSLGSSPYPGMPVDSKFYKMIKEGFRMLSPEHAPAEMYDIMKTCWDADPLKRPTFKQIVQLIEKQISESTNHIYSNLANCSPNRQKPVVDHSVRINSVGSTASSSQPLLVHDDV
Assay: PathScan phospho c-kit (Tyr719) sandwich ELISA in SCF-stimulated M-07e cells (pKIT assay)
Format: cell-based
Conditions: ELISA assay (values not marked *)
pIC50: −log10 of the molar value.

[
  {
    "Given Smiles": "COCCNc1cc2c(C(=O)Nc3cc(-c4nnn(C5CN(C(=O)OC)C5)n4)ccc3C)cnn2cc1Cl",
    "pIC50": 6.80
  },
  {
    "Given Smiles": "Cc1cc(F)c(-c2nnn([C@H]3C[C@@H](C(F)(F)F)C3)n2)cc1NC(=O)c1cnn2ccc(N3CCC(C)(O)CC3)cc12",
    "pIC50": 8.31
  },
  {
    "Given Smiles": "COC(=O)N1CC(n2nnc(-c3ccc(C)c(NC(=O)c4cnn5ccc(N6CCO[C@@H](CO)C6)cc45)c3)n2)C1",
    "pIC50": 7.29
  },
  {
    "Given Smiles": "COC(=O)N1CC(n2nnc(-c3ccc(C)c(NC(=O)c4cnn5ccc(N6CCOCC6)cc45)c3)n2)C1",
    "pIC50": 7.30
  },
  {
    "Given Smiles": "COC[C@@H](C)Nc1ccn2ncc(C(=O)Nc3cc(-c4nnn(C5CN(C(=O)OC)C5)n4)ccc3C)c2c1",
    "pIC50": 7.27
  },
  {
    "Given Smiles": "COC[C@@H](O)Cn1cc(-c2ccn3ncc(C(=O)Nc4cc(-c5nnn(C6CC6)n5)c(C)cc4Cl)c3c2)cn1",
    "pIC50": 8.43
  },
  {
    "Given Smiles": "COC(=O)N1CC(c2cnn(-c3ccc(C)c(NC(=O)c4cnn5ccc(NCC6COC6)cc45)c3)n2)C1",
    "pIC50": 7.62
  },
  {
    "Given Smiles": "C[C@](O)(CO)Cn1cc(-c2ccn3ncc(C(=O)Nc4cc(-c5nnn(C6CC6)n5)ccc4Cl)c3c2)cn1",
    "pIC50": 9.52
  },
  {
    "Given Smiles": "Cc1nn(C[C@H](C)O)cc1-c1ccn2ncc(C(=O)Nc3cc(-c4nnn(C5CC5)n4)c(F)cc3Cl)c2c1",
    "pIC50": 9.70
  },
  {
    "Given Smiles": "Cc1ccc(-c2nnn(C)n2)cc1NC(=O)c1cnn2cc(-c3cnn(CC(C)(C)O)c3)cc(F)c12",
    "pIC50": 8.57
  },
  {
    "Given Smiles": "COC(=O)N1CC(n2nnc(-c3ccc(C)c(NC(=O)c4cnn5ccc(NCC(C)(F)F)cc45)c3)n2)C1",
    "pIC50": 7.66
  },
  {
    "Given Smiles": "Cc1cc(C#N)c(-c2nnn(C3CC(F)(F)C3)n2)cc1NC(=O)c1cnn2ccc(N3CCOCC3)cc12",
    "pIC50": 7.58
  },
  {
    "Given Smiles": "CCOC(=O)N1CC(n2nnc(-c3ccc(C)c(NC(=O)c4cnn5ccc(N6CCOCC6)cc45)c3)n2)C1",
    "pIC50": 7.22
  },
  {
    "Given Smiles": "CCCS(=O)(=O)N1CC(n2nnc(-c3ccc(C)c(NC(=O)c4cnn5ccccc45)c3)n2)C1",
    "pIC50": 7.55
  }
]

All figures here come from patent US20240262826A1.
